meta.source: patent US8722622B2

- experiment-summary: Stability of linkers L1-L4 conjugated to FGF21 (LC-MS)
- Format: physicochemical
- settings: +4° C., 0 hrs; % of total measured protein
measure-name: 0 linker (unconjugated protein) (%)
Respond with the bare value in %.

Report 0 linker (unconjugated protein) for L2-FGF21ΔH-A129C: Linker-2 conjugated to FGF21ΔH-A129C protein (Table 4; Table 5 row L2) (conjugate, UniProt Q9NSA1 29-209, looked up, variant H1* A129C, Linker-2 attached) Fibroblast growth factor 21: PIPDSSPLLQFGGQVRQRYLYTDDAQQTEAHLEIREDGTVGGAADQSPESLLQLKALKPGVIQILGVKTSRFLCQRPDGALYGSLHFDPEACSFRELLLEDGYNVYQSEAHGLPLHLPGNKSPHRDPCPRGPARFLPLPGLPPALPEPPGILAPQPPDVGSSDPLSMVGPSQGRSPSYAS
22

Report 0 linker (unconjugated protein) for L4-FGF21ΔH-A129C: Linker-4 conjugated to FGF21ΔH-A129C protein (Table 4; Table 5 row L4) (conjugate, UniProt Q9NSA1 29-209, looked up, variant H1* A129C, Linker-4 attached) Fibroblast growth factor 21: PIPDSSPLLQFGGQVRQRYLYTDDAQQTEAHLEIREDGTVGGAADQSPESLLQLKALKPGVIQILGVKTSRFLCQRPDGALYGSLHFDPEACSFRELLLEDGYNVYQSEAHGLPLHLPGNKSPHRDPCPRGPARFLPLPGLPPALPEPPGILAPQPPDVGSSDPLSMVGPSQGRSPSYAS
20

Report 0 linker (unconjugated protein) for L3-FGF21ΔH-A129C: Linker-3 conjugated to FGF21ΔH-A129C protein (Table 4; Table 5 row L3) (conjugate, UniProt Q9NSA1 29-209, looked up, variant H1* A129C, Linker-3 attached) Fibroblast growth factor 21: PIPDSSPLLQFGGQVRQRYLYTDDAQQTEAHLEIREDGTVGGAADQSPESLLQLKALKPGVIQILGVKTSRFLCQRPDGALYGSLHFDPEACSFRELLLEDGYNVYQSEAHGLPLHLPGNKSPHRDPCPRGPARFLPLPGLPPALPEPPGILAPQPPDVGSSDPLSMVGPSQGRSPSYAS
19
